Reference source: ChEMBL document CHEMBL1201862

tested on: MDA-MB-435; assay: NCI tumour cell line growth inhibition, 48 h
Calls of active or inactive are those of the source. Cut-off read from the data, not from the text of the source: active = GI50 up to about 1.1 µM and inactive = higher.
Labels: class 1 (active), class 0 (inactive)

CN(C)CCCNc1ccnc2cccc([N+](=O)[O-])c12    class 0
CC(=O)OCCOc1cc2c([nH]c3ccccc32)c(C)c2cccc1-2    class 0
Cc1ccc(/N=C/C=C(\Nc2ccc(C)cc2)c2ccc3ccccc3c2)cc1    class 1
Cc1ccc(N)c(S)c1    class 0
COC(=O)CC1C=CC(C)(OC)OO1 (configuration not stated)    class 0
COC(=O)[C@@H]1C[C@H]([Se]c2ccccc2)CN1C(=O)OCc1ccccc1    class 0
CN/C(=N\N=C1/C(=O)Nc2ccccc21)SCC(=O)c1ccc(Br)cc1    class 0
CN1CC[C@@H](c2c(O)cc(O)c3c(=O)cc(-c4ccccc4Cl)oc23)[C@@H](O)C1    class 1
NC(=O)NCCCC(NC(=O)OCCCCCn1ccc(=O)[nH]c1=O)C(=O)O (configuration not stated)    class 0
COC(C)(C)C1=CCC(C)CC1 (configuration not stated)    class 0
Cc1nn(C(=O)c2ccccc2O)c2c1C(c1ccc([N+](=O)[O-])cc1)SC(=N)N2 (configuration not stated)    class 0
[N-]=[N+]=C(C(=O)C(=[N+]=[N-])C(=O)c1ccccc1)C(=O)c1ccccc1    class 0
CCNC1=C(NC(=O)c2ccccc2)C(=O)c2ccccc2C1=O    class 0
CC1=NC(=Cc2ccc([N+](=O)[O-])cc2)C(=O)N1n1c(-c2ccccc2)nc2ccccc2c1=O    class 0
COC(=O)c1c(O)ccc2c1c1c(n2-c2ccc(OC)cc2)C(=O)c2ccccc2C1=O    class 0
C[N+]12C=CC=C1C(N1CCCC1)c1scc(-c3ccc(Br)cc3)c12 (configuration not stated)    class 0
COc1c(C)c(C/C=C(\C)CCCCO)c(OC)c(OC)c1OC    class 0
CC1=CC[C@](C)(O)[C@@]2(C)CC[C@H]3C(=C(C)C)C(=O)C[C@]3(C)C[C@H]12    class 0
Cc1ccc2c(c1)C(=O)/C(=N/Nc1ccc(Cl)cc1)CCO2    class 0
N=c1oc2c(Cl)cc(Cl)cc2cc1C(=O)Nc1ccccn1    class 0
Cc1ccc(S(=O)(=O)NC(=O)C2C(=O)CC3(CCCCC3)CC2=O)cc1    class 0
Cc1ccc(/C=C2\CN(C)CC3=C2N=C(S)NC3c2ccc(C)cc2)cc1 (configuration not stated)    class 0
CCOc1cc2c(OCc3ccccc3)cc3c4cc(OC)c(OC)cc4c[n+](C)c3c2cc1OC    class 1
O=C1/C(=C/c2cccc(O)c2)COc2ccccc21    class 0
Cc1c(Cl)ccc2c(=O)c3cccc(CC(=O)O)c3oc12    class 0
C=C(C)C1CC2(C)C(C)CC(O)CC2C(OC(=O)C=C(C)C)C1O (configuration not stated)    class 0
CC1(C)OC(=S)N(c2ccccc2)C12C=Cc1ccccc1O2 (configuration not stated)    class 0
